Tested on: ECHCG
Assay: Pre-emergence herbicidal action against ECHCG
Format: in vivo, Echinochloa crus-galli
Conditions: 80 g/ha
Exercise: state measured Pre-emergence action against ECHCG in % for each of the compounds provided.
Response body: numeric value in %, unit text excluded.

Q) Give Pre-emergence action against ECHCG in % for `CCc1c(C(=O)Nc2nnnn2C)ccc(C(F)(F)F)c1C(=O)NCC1CC1`
A) 100

Q) Give Pre-emergence action against ECHCG in % for `Cn1nnnc1NC(=O)c1ccc(C(F)(F)F)c(C(=O)NCC(F)F)c1Cl`
A) 100

Q) Give Pre-emergence action against ECHCG in % for `COCCNC(=O)c1c(C(F)F)ccc(C(=O)Nc2nnnn2C)c1Cl`
A) 100

Q) Give Pre-emergence action against ECHCG in % for `Cn1nnnc1NC(=O)c1ccc(C(F)F)c(C(=O)NCc2cccs2)c1Cl`
A) 100

Q) Give Pre-emergence action against ECHCG in % for `CCn1nnnc1NC(=O)c1ccc(C(F)F)c(C(=O)NCCOC)c1Cl`
A) 100

Q) Give Pre-emergence action against ECHCG in % for `CCn1nnnc1NC(=O)c1ccc(C(F)(F)F)c(C(=O)NCC2CC2)c1Br`
A) 100

Q) Give Pre-emergence action against ECHCG in % for Cc1c(C(=O)Nc2nnnn2C)ccc(C(F)F)c1C(=O)NC(C)C1CC1 (stereo not shown)
A) 100

Q) Give Pre-emergence action against ECHCG in % for `CCn1nnnc1NC(=O)c1ccc(C(F)(F)F)c(C(=O)NCC(F)(F)F)c1Br`
A) 90

Q) Give Pre-emergence action against ECHCG in % for `Cn1nnnc1NC(=O)c1ccc(C(F)(F)F)c(C(=O)NCc2cccs2)c1Cl`
A) 100

Q) Give Pre-emergence action against ECHCG in % for `CCNC(=O)c1c(C(F)F)ccc(C(=O)Nc2nnnn2CC)c1SC`
A) 100

Q) Give Pre-emergence action against ECHCG in % for `CCn1nnnc1NC(=O)c1ccc(C(F)F)c(C(=O)NC2CC2)c1SC`
A) 90

Q) Give Pre-emergence action against ECHCG in % for CC(NC(=O)c1c(C(F)(F)F)ccc(C(=O)Nc2nnnn2C)c1C1CC1)C1CC1 (stereo not shown)
A) 90

Q) Give Pre-emergence action against ECHCG in % for CCn1nnnc1NC(=O)c1ccc(C(F)F)c(C(=O)NC(C)C2CC2)c1C (stereo not shown)
A) 100

Q) Give Pre-emergence action against ECHCG in % for `CCn1nnnc1NC(=O)c1ccc(C(F)(F)F)c(C(=O)NCC(F)F)c1C1CC1`
A) 90

Q) Give Pre-emergence action against ECHCG in % for `Cc1nnc(NC(=O)c2ccc(C(F)(F)F)c(C(=O)NCC3CC3)c2Br)o1`
A) 100

Q) Give Pre-emergence action against ECHCG in % for `COc1c(C(=O)Nc2nnc(C)o2)ccc(C(F)(F)F)c1C(=O)NC1CC1`
A) 80

Q) Give Pre-emergence action against ECHCG in % for `CCn1nnnc1NC(=O)c1ccc(C(F)(F)F)c(C(=O)NCC(F)(F)F)c1Cl`
A) 100

Q) Give Pre-emergence action against ECHCG in % for `Cc1c(C(=O)Nc2nnnn2C)ccc(C(F)(F)F)c1C(=O)NCC(F)F`
A) 80

Q) Give Pre-emergence action against ECHCG in % for `Cn1nnnc1NC(=O)c1ccc(C(F)F)c(C(=O)NCC(F)F)c1Br`
A) 90

Value source: patent US12655116B2
